# System: BT-549
Decision: GI50 beneath 10 µM gives satisfied; GI50 meeting or exceeding 10 µM gives not satisfied.

# molecule, class-label
measured = [
    ("CN(C)c1nc(NCCNS(=O)(=O)c2ccc(C(=O)/C=C/c3ccc(C(F)(F)F)cc3)cc2)nc(Nc2ccc(F)cc2)n1 [24g]", "not satisfied"),
    ("CN(C)c1nc(NCCNS(=O)(=O)c2ccc(C3=Nc4c(N)nc(N)nc4NC(c4ccc(C(F)(F)F)cc4)C3)cc2)nc(Nc2ccc(F)cc2)n1 (stereo not drawn) [31g]", "not satisfied"),
    ("COc1ccc(/C=C/C(=O)c2ccc(S(=O)(=O)NCCNc3nc(Nc4ccc(F)cc4)nc(N(C)C)n3)cc2)cc1 [24c]", "not satisfied"),
    ("CN(C)c1nc(NCCNS(=O)(=O)c2ccc(C(=O)/C=C/c3ccccc3)cc2)nc(N2CCOCC2)n1 [23a]", "not satisfied"),
    ("Cc1ccc(/C=C/C(=O)c2ccc(S(=O)(=O)NCCNc3nc(Nc4ccc(F)cc4)nc(N(C)C)n3)cc2)cc1 [24b]", "not satisfied"),
    ("Nc1nc(N)c2c(n1)NC(c1ccc(Cl)cc1)CC(c1ccc(Nc3nc(NCCO)nc(Nc4ccc(Cl)cc4)n3)cc1)=N2 (stereo not drawn) [33e]", "satisfied"),
    ("COc1cc(/C=C/C(=O)c2ccccc2)ccc1Oc1nc(Nc2ccc(F)cc2)nc(N(C)C)n1 [21a]", "not satisfied"),
    ("Cc1ccc(C2CC(c3ccc(Nc4nc(NCCO)nc(Nc5ccc(Cl)cc5)n4)cc3)=Nc3c(N)nc(N)nc3N2)cc1 (stereo not drawn) [33b]", "satisfied"),
    ("COc1cc(/C=C/C(=O)c2ccc(C)cc2)ccc1Oc1nc(NCCO)nc(N2CCOCC2)n1 [20b]", "satisfied"),
    ("Cc1ccc(C2CC(c3ccc(S(=O)(=O)NCCNc4nc(Nc5ccc(F)cc5)nc(N(C)C)n4)cc3)=Nc3c(N)nc(N)nc3N2)cc1 (stereo not drawn) [31b]", "satisfied"),
    ("CN(C)c1nc(NCCNS(=O)(=O)c2ccc(C3=Nc4c(N)nc(N)nc4NC(c4ccc(Cl)cc4)C3)cc2)nc(Nc2ccc(F)cc2)n1 (stereo not drawn) [31e]", "satisfied"),
    ("CN(C)c1nc(NCCNS(=O)(=O)c2ccc(C(=O)/C=C/c3ccc(F)cc3)cc2)nc(N2CCOCC2)n1 [23f]", "not satisfied"),
    ("CN(C)c1nc(NCCNS(=O)(=O)c2ccc(C(=O)/C=C/c3ccc(C(F)(F)F)cc3)cc2)nc(N2CCOCC2)n1 [23g]", "not satisfied"),
    ("COc1cc(C2CC(c3ccc(Cl)cc3)=Nc3c(N)nc(N)nc3N2)ccc1Oc1nc(Nc2ccc(F)cc2)nc(N(C)C)n1 (stereo not drawn) [29e]", "not satisfied"),
    ("CN(C)c1nc(NCCNS(=O)(=O)c2ccc(C(=O)/C=C/c3ccc(Cl)cc3)cc2)nc(N2CCOCC2)n1 [23e]", "not satisfied"),
]

###

# Test system: SNB-19
# protocol-notes: cells
# assay-setup: Homo sapiens, SNB-19, 48 h, read-out: LC50
Reported log10 of CC50 values are given for each entry in this list.
measurement-name: log10 of CC50 (log10 of the value in µM)

# compound, assay-target, log10 of CC50
data = [
    ("COc1cc(/C=C/C(=O)c2ccccc2)ccc1Oc1nc(Nc2ccc(F)cc2)nc(N(C)C)n1 [21a]", "SNB-19", 1.87),
    ("Nc1nc(N)c2c(n1)NC(c1ccc(C(F)(F)F)cc1)CC(c1ccc(Nc3nc(NCCO)nc(Nc4ccc(Cl)cc4)n3)cc1)=N2 (stereo not drawn) [33g]", "SNB-19", 0.76),
    ("Cc1ccc(/C=C/C(=O)c2ccc(S(=O)(=O)NCCNc3nc(Nc4ccc(F)cc4)nc(N(C)C)n3)cc2)cc1 [24b]", "SNB-19", 1.70),
    ("CN(C)c1nc(NCCNS(=O)(=O)c2ccc(C(=O)/C=C/c3ccc(Cl)cc3)cc2)nc(N2CCOCC2)n1 [23e]", "SNB-19", 1.72),
    ("COc1cc(/C=C/C(=O)c2ccc(C)cc2)ccc1Oc1nc(Nc2ccc(F)cc2)nc(N(C)C)n1 [21b]", "SNB-19", 1.83),
    ("Nc1nc(N)c2c(n1)NC(c1ccc(Cl)cc1)CC(c1ccc(Nc3nc(NCCO)nc(Nc4ccc(Cl)cc4)n3)cc1)=N2 (stereo not drawn) [33e]", "SNB-19", 1.33),
    ("CN(C)c1nc(NCCNS(=O)(=O)c2ccc(C(=O)/C=C/c3ccc(F)cc3)cc2)nc(Nc2ccc(F)cc2)n1 [24f]", "SNB-19", 1.23),
    ("COc1cc(/C=C/C(=O)c2cc(OC)c(OC)c(OC)c2)ccc1Oc1nc(NCCO)nc(N2CCOCC2)n1 [20d]", "SNB-19", 1.48),
    ("Nc1nc(N)c2c(n1)NC(c1ccccc1)CC(c1ccc(Nc3nc(NCCO)nc(Nc4ccc(Cl)cc4)n3)cc1)=N2 (stereo not drawn) [33a]", "SNB-19", 0.75),
    ("CN(C)c1nc(NCCNS(=O)(=O)c2ccc(C(=O)/C=C/c3ccc(C(F)(F)F)cc3)cc2)nc(N2CCOCC2)n1 [23g]", "SNB-19", 1.71),
]

Cited source for all entries: paper PMC11012124
